Test: binders of probe aHhip on microarray, primary screen, stem cell growth factor project, biochemical, small-molecule microarray, fluorescence 635/667 (AID 1087);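 also: score merges spot fluorescence at 667nm with spot signal to noise ratio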
Conditions: higher = more signal
// Not met strictly below -0.05 in composite z-score; Met otherwise

molecule=COc1ccc(C#Cc2ccc3c(c2)[C@]2(C(=O)N3)[C@H](c3ccc(OCCO)cc3)N3[C@H](c4ccccc4)[C@H](c4ccccc4)OC(=O)[C@H]3[C@@H]2C(=O)O)cc1 label=Met
molecule=CC(C)CNC(=O)[C@@H]1c2ccccc2C(=O)N(Cc2ccccc2)[C@H]1c1ccc(CO)cc1 label="Not met"
molecule=C=CC[C@@]12N=C(c3ccc(OCCCO)cc3)O[C@@H]1c1ccccc1N(Cc1ccccc1)C2=O label=Met
molecule=COC(=O)[C@@]1(Cc2ccccc2)[C@@H]2[C@@H](CC(=O)[C@H]2CC(=O)C(=O)N(C)C)CN1C(=O)c1ccccc1 label="Not met"
molecule=CC(C)C(=C=CC[C@@H](O)c1ccc(OCCO)cc1)CCO label=Met

Does the molecule COC(=O)C1=CC(CCCO)=CC(c2ccc(CN3CCCC3)cc2)N(Cc2sc3ccccc3c2Cl)C=C1C(=O)OC (configuration not stated) have recorded composite z-score that is -0.05 or more?
Met

Does the molecule CCN(CC)c1ccc(N2CC=CC34O[C@@H]5C=CCOC(=O)[C@@H]5[C@H]3C(=O)N(CCO)[C@@H]4C2=O)cc1 (some centres not stated) have recorded composite z-score that is -0.05 or more?
Not met

Does the molecule COCCCNC(=O)[C@@H]1c2ccccc2C(=O)N(Cc2cc(C(F)(F)F)cc(C(F)(F)F)c2)[C@H]1c1ccc(CO)cc1 have recorded composite z-score that is -0.05 or more?
Not met

Does the molecule C=CC[C@]1(C(=O)NCc2ccccc2)COC(c2ccc(OCCCO)cc2)=N1 have recorded composite z-score that is -0.05 or more?
Not met

Does the molecule CC#CCO[Si](C#CCCCCCC)(C(C)C)C(C)C have recorded composite z-score that is -0.05 or more?
Not met

Does the molecule CCCCC=C[C@@H](NC(=O)c1ccc(C(F)(F)F)cc1)c1ccccc1 have recorded composite z-score that is -0.05 or more?
Met

Does the molecule CC(=O)c1ccc(C(O)C2C=CC3C(=O)NC(=O)C3N2Nc2ccc(Cl)cc2Cl)cc1 (configuration not stated) have recorded composite z-score that is -0.05 or more?
Not met

Does the molecule COC(=O)[C@@]1(Cc2ccc(F)cc2)[C@H]2c3cc(C(=O)N4CCCC4)n(CCO)c3C[C@H]2CN1C(=O)c1ccccc1 have recorded composite z-score that is -0.05 or more?
Met

Does the molecule CC(C)C[C@@H]1NC(=O)[C@H]2C[C@@H](C(=O)NCCCCCNC(=O)CS)[C@@H](c3ccc(O)cc3)N2C1=O have recorded composite z-score that is -0.05 or more?
Not met

Does the molecule COCCOC(=O)N1C(=O)[C@@]2(c3ccccc31)[C@H](C(N)=O)[C@H]1C(=O)O[C@H](c3ccccc3)[C@H](c3ccccc3)N1[C@@H]2c1ccc(OCCO)cc1 have recorded composite z-score that is -0.05 or more?
Met

Does the molecule CCCCNC(=O)c1ccc(C#C[Si](C)(C)C)c(OC(C)=O)c1 have recorded composite z-score that is -0.05 or more?
Not met

###

Molecular target: Luciferin 4-monooxygenase (Photinus pyralis) (UniProt P08659)
Sequence (P08659 whole entry, looked up): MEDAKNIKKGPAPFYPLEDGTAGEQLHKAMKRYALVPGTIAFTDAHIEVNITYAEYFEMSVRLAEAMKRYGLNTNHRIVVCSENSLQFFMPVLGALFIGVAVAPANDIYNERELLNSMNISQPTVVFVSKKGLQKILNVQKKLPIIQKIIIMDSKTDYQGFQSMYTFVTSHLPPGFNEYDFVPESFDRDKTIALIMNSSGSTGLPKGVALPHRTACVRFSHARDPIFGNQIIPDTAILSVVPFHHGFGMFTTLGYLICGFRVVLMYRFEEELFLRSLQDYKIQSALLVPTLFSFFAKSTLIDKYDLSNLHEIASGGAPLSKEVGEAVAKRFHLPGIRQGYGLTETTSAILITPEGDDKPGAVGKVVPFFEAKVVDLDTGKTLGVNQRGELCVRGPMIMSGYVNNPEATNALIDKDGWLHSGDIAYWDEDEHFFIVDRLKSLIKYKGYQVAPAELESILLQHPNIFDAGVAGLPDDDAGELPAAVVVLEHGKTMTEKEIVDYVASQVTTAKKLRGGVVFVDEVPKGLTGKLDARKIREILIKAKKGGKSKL
Test: firefly luciferase enzyme inhibitors, primary screen, biochemical, luminescence, purified enzyme, 2006 set (AID 1141);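 also: cell-free assay with purified firefly luciferase at 100 ng per well in PBS; test concentration not given here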
Conditions: SteadyGlo luminescence, 30 min, higher = more signal, called active from +8 up or from −8 down
result-type: z-score
Format: numeric value only, no unit, no commentary.

// known answers, use as guide
compound="COc1ccc(NN2C(C(O)c3cc(C(F)(F)F)cc(C(F)(F)F)c3)C=CC3C(=O)N(C4CCCCC4)C(=O)C32)cc1 (centres undefined)" result_type=z-score meas_value=0.36
compound=COc1ccccc1CN1C(=O)c2ccccc2[C@](Cc2ccccc2I)(C(=O)NCCCN(C)C)[C@@H]1c1ccc(CO)cc1 result_type=z-score meas_value=-0.644
compound="C=CCC(OC(C)=O)[C@@H]1[C@@H](N(Cc2ccc(-c3ccccc3)cc2)C(=O)c2cccc3ccccc23)c2cc(OCCCO)ccc2N1C(=O)c1ccc2ccccc2c1 (some centres undefined)" result_type=z-score meas_value=0.209

Specify measured z-score for CCC[C@@H]1[C@@H](Sc2ccccc2)[C@@H](C(=O)O)[C@H](c2ccc(C)cc2)N1S(=O)(=O)c1ccc(C)cc1 .
1.46
